# self-cleavage listing for each entry below
B1: CPEB3 Ribozyme (parent)
chain: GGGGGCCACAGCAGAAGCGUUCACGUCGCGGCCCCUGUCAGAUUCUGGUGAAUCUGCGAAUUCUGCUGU

- Variants of: B1
- METHOD: self-cleavage, relative activity (ratio to wild type); higher = more cleavage; co-transcriptional
Output spec: single numeric token, no unit.

Worked cases, answers included:
> print(dat)
   mutation.string  value
1        A13C G19U  0.138
2        A15C C54A  0.447
3        U38G A60U  0.331

Using the record for U46C C57A , state its measured self-cleavage.
0.373

Using the record for U36A U49A , state its measured self-cleavage.
0.263
